For KP S 440 (OXA 181, SHV, TEM, CTX-M 1), measured MIC is reported for the entries below.
measured endpoint: MIC (µg/mL)

INSERT INTO assay_data (chemical_smiles, qualifying_sign, recorded_result) VALUES
  ('C[C@@H](O)[C@H]1C(=O)N2C(C(=O)O)=C(SCCN=CN)C[C@H]12', '=', 2),
  ('C=CC1=C(C(=O)O)N2C(=O)[C@@H](NC(=O)/C(=N\OCC(=O)O)c3csc(N)n3)[C@H]2SC1', '>', 32),
  ('Nc1nc(/C(=C/CC(=O)O)C(=O)N[C@@H]2C(=O)N3C(C(=O)O)=CCS[C@H]23)cs1', '=', 16),
  ('C=CC1=C(C(=O)O)N2C(=O)[C@@H](NC(=O)/C(=N\O)c3csc(N)n3)[C@H]2SC1', '>', 32);
